Sourced from PubChem BioAssay (NCI)

Listing of entries alongside the reported TGI.
Test system: TK-10 renal
Assay: NCI tumour cell line growth inhibition, 48 h

Worked cases, answers included:
> print(dat)
                                   compound  measured.on     result
1     Cc1ccc(SC[C@@]2(C(F)F)NC(=O)NC2=O)cc1  TK-10 renal   > 100 µM
2       COc1cc(/C=C/[N+](=O)[O-])cc(OC)c1OC  TK-10 renal    6.07 µM
3  CN1CCN(c2cc3nc4ccccc4n(-c4ccc(Cl)cc4)c-3cc2=N)CC1  TK-10 renal   > 100 µM
4          CNC(=S)N/N=C(\C)c1nc2ncccc2[nH]1  TK-10 renal  > 96.1 µM

Attention now turns to another entry.
input: Identify measured TGI corresponding to CCN1C(=O)N(CC)C2C1NN=c1s/c(=C\c3ccc[nH]3)c(=O)n12 (stereo not given)
output: > 100 µM
